Consider the following molecules; for each one, report its MIC Enterococcus faecalis (GC 2691).
Tested on: Enterococcus sp.
Assay: in vitro antibacterial evaluation, MIC by broth dilution
Type: cell-based
Conditions: broth dilution, inoculum 5×10^5 CFU/mL, 18 hours at 35° C.; strain GC 2691
One number for each entry, in µg/mL.

molecule="CC(c1ccccc1)C1NC(=O)CNC(=O)C(CO)NC(=O)C(C(O)C2CNC(=N)N2C2OC(CO)C(O)C(O)C2O)NC(=O)C(C(O)C2CNC(=N)N2)NC(=O)C(Cc2ccc(OC3OC(CO)C(OC4OC(CO)C(OCC=Cc5ccc(N(C)C)cc5)C(O)C4O)C(O)C3O)cc2)NC1=O (stereo not shown) [Example 243a]" property="MIC Enterococcus faecalis (GC 2691)" unit_of_measurement=µg/mL numeric_readout=32

Shift focus to the following entry.
stdin: Return MIC Enterococcus faecalis (GC 2691) (reported value) for this molecule: CC(c1ccccc1)C1NC(=O)CNC(=O)C(CO)NC(=O)C(C(O)C2CNC(=N)N2C2OC(CO)C(O)C(O)C2O)NC(=O)C(C(O)C2CNC(=N)N2)NC(=O)C(Cc2ccc(OC3OC(CO)C(OC4OC5COC6(CCCCCCCCCCCC6)OC5C(O)C4O)C(O)C3O)cc2)NC1=O (stereo not shown)
stdout: 8

# credit: patent US6914045B2
